System: 941728-121-R-J1-PDC complex spheroid viability;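 further: spheroids exposed to compounds for 7 days before readout; 100% = DMSO vehicle control viability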
Assay procedure: Anticancer human tumor 941728-121-R-J1-PDC patient-derived lung adenocarcinoma cell line growth inhibition [RAS]
Applied conditions: second compound 0.3 µM; first compound 0.0316 µM; stronger effect = lower value
From the text: RAS pathway inhibitors in Combinations in Complex Spheroids A high-throughput screen of multi-cell type tumor spheroids was designed to identify active combinations of RAS pathway inhibitors and targeted small molecules. Complex spheroids include a stromal component modeled by human endothelial cells (HUVEC) and fibroblasts modeled by human mesenchymal stem cells (MSCs). […] Compounds. […] If the clinical Cmax for an agent had not been determined, the highest concentration tested was 10 microM. […]
Task for the reader: assign each of the following compounds its reported viability, T/C.
Value expressed in %; do not type the unit.

Lab note: C=CC(=O)N1CCN(c2nc(OCC3CCCN3C)nc3c(F)c(-c4nc(N)cc(C)c4C(F)(F)F)c(Cl)cc23)C(C)C1 (stereo not given) + CCn1c(-c2cccnc2C(C)OC)c2c3cc(ccc31)N1CCOC(CC(NC(=O)C(C(C)C)N(C)C(=O)C3(F)CCN(C(=O)C#CC(C)(C)N(C)C)CC3)C(=O)N3CCCC(N3)C(=O)OCC(C)(C)C2)C1 gave viability, T/C of 22.4

The compound identified as CCC(CC)c1cc(NC2CCC(N)C2)n2nccc2n1 (stereo not given) + CCn1c(-c2cccnc2C(C)OC)c2c3cc(ccc31)N1CCOC(CC(NC(=O)C(C(C)C)N(C)C(=O)C3(F)CCN(C(=O)C#CC(C)(C)N(C)C)CC3)C(=O)N3CCCC(N3)C(=O)OCC(C)(C)C2)C1 registered its viability, T/C at 23.3

// CC(C)n1nc(-c2ccc3oc(N)nc3c2)c2c(N)ncnc21 + CCn1c(-c2cccnc2C(C)OC)c2c3cc(ccc31)N1CCOC(CC(NC(=O)C(C(C)C)N(C)C(=O)C3(F)CCN(C(=O)C#CC(C)(C)N(C)C)CC3)C(=O)N3CCCC(N3)C(=O)OCC(C)(C)C2)C1 : viability, T/C value = 10.5

For reference, reported viability, T/C for C[C@@H](NC(=O)c1ncnc(N)c1Cl)c1ncc(C(=O)Nc2cc(C(F)(F)F)c(Cl)cn2)s1 + CCn1c(-c2cccnc2C(C)OC)c2c3cc(ccc31)N1CCOC(CC(NC(=O)C(C(C)C)N(C)C(=O)C3(F)CCN(C(=O)C#CC(C)(C)N(C)C)CC3)C(=O)N3CCCC(N3)C(=O)OCC(C)(C)C2)C1 stands at 22.6

viability, T/C measured on CCN1CCN(Cc2ccc(Nc3ncc(F)c(-c4cc(F)c5nc(C)n(C(C)C)c5c4)n3)nc2)CC1 + CCn1c(-c2cc(N3CCN(C)CC3)cnc2C(C)OC)c2c3cc(ccc31)-c1csc(n1)CC(NC(=O)C1CC1C)C(=O)N1CCCC(N1)C(=O)OCC(C)(C)C2 = 11.7

viability, T/C measured on NC1c2ccccc2OC12CCN(c1cnc3c(N4CCCc5ncccc54)n[nH]c3n1)CC2 (stereo not given) + CCn1c(-c2cccnc2C(C)OC)c2c3cc(ccc31)N1CCOC(CC(NC(=O)C(C(C)C)N(C)C(=O)C3(F)CCN(C(=O)C#CC(C)(C)N(C)C)CC3)C(=O)N3CCCC(N3)C(=O)OCC(C)(C)C2)C1 = 20.2

Documented viability, T/C of CCN1CCN(Cc2ccc(Nc3ncc(F)c(-c4cc(F)c5nc(C)n(C(C)C)c5c4)n3)nc2)CC1 + CCn1c(-c2cccnc2C(C)OC)c2c3cc(ccc31)N1CCOC(CC(NC(=O)C(C(C)C)N(C)C(=O)C3(F)CCN(C(=O)C#CC(C)(C)N(C)C)CC3)C(=O)N3CCCC(N3)C(=O)OCC(C)(C)C2)C1 : 21.3

Record summary for O=C(c1ccc(F)c(F)c1Nc1ccc(I)cc1F)N1CC(O)([C@@H]2CCCCN2)C1 + CCn1c(-c2cccnc2C(C)OC)c2c3cc(ccc31)N1CCOC(CC(NC(=O)C(C(C)C)N(C)C(=O)C3(F)CCN(C(=O)C#CC(C)(C)N(C)C)CC3)C(=O)N3CCCC(N3)C(=O)OCC(C)(C)C2)C1 : reported viability, T/C = 15.8

Per the records, this compound ( C=CC(=O)Nc1cc(Nc2nccc(-c3cn(C)c4ccccc34)n2)c(OC)cc1N(C)CCN(C)C + CCn1c(-c2cccnc2C(C)OC)c2c3cc(ccc31)N1CCOC(CC(NC(=O)C(C(C)C)N(C)C(=O)C3(F)CCN(C(=O)C#CC(C)(C)N(C)C)CC3)C(=O)N3CCCC(N3)C(=O)OCC(C)(C)C2)C1 ) has viability, T/C equal to 21.3

Form field viability, T/C, entry CCC(CC)c1cc(NC2CCC(N)C2)n2nccc2n1 (stereo not given) + CCn1c(-c2cc(N3CCN(C)CC3)cnc2C(C)OC)c2c3cc(ccc31)-c1csc(n1)CC(NC(=O)C1CC1C)C(=O)N1CCCC(N1)C(=O)OCC(C)(C)C2 : 13.3

Lab book: viability, T/C of C=CC(=O)Nc1cc(Nc2nccc(-c3cn(C)c4ccccc34)n2)c(OC)cc1N(C)CCN(C)C + CCn1c(-c2cc(N3CCN(C)CC3)cnc2C(C)OC)c2c3cc(ccc31)-c1csc(n1)CC(NC(=O)C1CC1C)C(=O)N1CCCC(N1)C(=O)OCC(C)(C)C2 noted as 15

For CC(Nc1ccc2c(c1)OCCn1cc(N3C(=O)OCC3C(F)F)nc1-2)C(N)=O (stereo not given) + CCn1c(-c2cccnc2C(C)OC)c2c3cc(ccc31)N1CCOC(CC(NC(=O)C(C(C)C)N(C)C(=O)C3(F)CCN(C(=O)C#CC(C)(C)N(C)C)CC3)C(=O)N3CCCC(N3)C(=O)OCC(C)(C)C2)C1 the compound record lists viability, T/C as 19.9

response.value for CC(C)NCC(C(=O)N1CCN(c2ncnc3c2C(C)CC3O)CC1)c1ccc(Cl)cc1 (stereo not given) + CCn1c(-c2cccnc2C(C)OC)c2c3cc(ccc31)N1CCOC(CC(NC(=O)C(C(C)C)N(C)C(=O)C3(F)CCN(C(=O)C#CC(C)(C)N(C)C)CC3)C(=O)N3CCCC(N3)C(=O)OCC(C)(C)C2)C1 (field: viability, T/C) = 24.7

Input CC(C)n1nc(-c2ccc3oc(N)nc3c2)c2c(N)ncnc21 + CCn1c(-c2cc(N3CCN(C)CC3)cnc2C(C)OC)c2c3cc(ccc31)-c1csc(n1)CC(NC(=O)C1CC1C)C(=O)N1CCCC(N1)C(=O)OCC(C)(C)C2 . Output viability, T/C: 7.62

Please fill in: viability, T/C reported for Cc1nc(N2CCC3(CC2)COC(C)C3N)c(CO)nc1Sc1ccnc(N)c1Cl (stereo not given) + CCn1c(-c2cc(N3CCN(C)CC3)cnc2C(C)OC)c2c3cc(ccc31)-c1csc(n1)CC(NC(=O)C1CC1C)C(=O)N1CCCC(N1)C(=O)OCC(C)(C)C2 = 13.1
